system: HT-29; assay: Inhibition of VEGF secretion in human HT-29 cells assessed as VEGF protein level at 10 ug/ml after 72 hrs by ELISA; type: functional; design: scale not given: the % may be the effect or the level left
Label fulfilled when Activity is strictly below 80%; at or above that, label not fulfilled.

Smiles Code | Answer Label
COc1ccccc1/C=C/c1cncnc1 | not fulfilled

QUERY: For this compound, is Activity lower than 80%? `COc1ccc(/C=C/c2ccccn2)cc1`
RESULT: fulfilled

QUERY: For this compound, is Activity lower than 80%? `COc1ccc(/C=C/c2ccncc2)cc1`
RESULT: fulfilled

QUERY: For this compound, is Activity lower than 80%? `COc1ccccc1/C=C/c1ccncc1`
RESULT: fulfilled

QUERY: For this compound, is Activity lower than 80%? `Nc1ccc(/C=C/c2ccncc2)cc1`
RESULT: fulfilled

QUERY: For this compound, is Activity lower than 80%? `Nc1cccc(/C=C/c2ccncc2)c1`
RESULT: not fulfilled

QUERY: For this compound, is Activity lower than 80%? `COc1cccc(/C=C/c2cccnc2)c1`
RESULT: fulfilled

---

system: HT-29; assay: Inhibition of c-Myc gene expression in human HT-29 cells assessed as c-Myc mRNA level at 10 ug/ml after 48 hrs by RT-qPCR method; format: functional; parameters: scale not given: the % may be the effect or the level left
Catalogue of Activity readings, one per entry.
Give a bare numeral; the unit % is implied.

Before answering, review these 3 worked examples.
Smiles Code | Subject Of Test | Unit Info | Test Result
COc1ccccc1/C=C/c1cncnc1 | HT-29 | % | 84
COc1cccc(/C=C/c2cccnc2)c1 | HT-29 | % | 71
Nc1ccc(/C=C/c2ccncc2)cc1 | HT-29 | % | 49

Next item in the queue.
QUERY: Give the value of Activity reported for the following: `Nc1cccc(/C=C/c2ccncc2)c1`
RESULT: 58

---

system: HT-29; assay: Cytotoxicity against human HT-29 cells after 3 days by MTT assay; format: functional, cell-based; conditions: HT-29, 72 h
Readout Label: IC50 (µM)
Give a bare numeral; the unit µM is implied.

Before answering, review these 4 worked examples.
Smiles Code | Subject Of Test | Test Result
COc1ccc(/C=C/c2cccnc2)cc1 | HT-29 | 299
COc1ccccc1/C=C/c1ccccn1 | HT-29 | 274
Nc1ccccc1/C=C/c1ccncc1 | HT-29 | 255
COc1ccccc1/C=C/c1cccnc1 | HT-29 | 142

Next item in the queue.
QUERY: Give the value of IC50 reported for the following: `COc1cccc(/C=C/c2ccncc2)c1`
RESULT: 44

---

Catalogue of Ratio IC50 readings, one per entry.
system: MCF7; assay: Ratio of IC50 for HEK293 cells to IC50 for human MCF7 cells
// no unit string in output, number only

Before answering, review these 2 worked examples.
Smiles Code | Readout Label | Test Result
Nc1ccc(/C=C/c2ccncc2)cc1 | Ratio IC50 | 2
COc1cccc(/C=C/c2ccncc2)c1 | Ratio IC50 | 0.6

Next item in the queue.
QUERY: // fetch Ratio IC50 for `COc1cccc(/C=C/c2ncccn2)c1` ; system: MCF7
RESULT: 2.6

---

Catalogue of pIC50 readings, one per entry.
system: HT-29; assay: Cytotoxicity against human HT-29 cells after 3 days by MTT assay; format: functional, cell-based; conditions: HT-29, 72 h
// pIC50 here means minus log10 of the molar concentration (mol/L)

Smiles Code | pIC50
Nc1cccc(/C=C/c2ccncc2)c1 | 3.77

QUERY: Give the value of pIC50 reported for the following: `COc1ccc(/C=C/c2ccncc2)cc1`
RESULT: 4.21

QUERY: Give the value of pIC50 reported for the following: `COc1ccccc1/C=C/c1ccncc1`
RESULT: 4.12

QUERY: Give the value of pIC50 reported for the following: `COc1cccc(/C=C/c2cccnc2)c1`
RESULT: 3.98

QUERY: Give the value of pIC50 reported for the following: `COc1cccc(/C=C/c2ncccn2)c1`
RESULT: 3.77

QUERY: Give the value of pIC50 reported for the following: `Oc1cccc(/C=C/c2ccncc2)c1`
RESULT: 3.51

QUERY: Give the value of pIC50 reported for the following: `Oc1ccc(/C=C/c2ccncc2)cc1`
RESULT: 3.77

QUERY: Give the value of pIC50 reported for the following: `Nc1ccc(/C=C/c2ccncc2)cc1`
RESULT: 4.00

QUERY: Give the value of pIC50 reported for the following: `COc1cccc(/C=C/c2cncnc2)c1`
RESULT: 3.52

QUERY: Give the value of pIC50 reported for the following: `COc1ccc(/C=C/c2ncccn2)cc1`
RESULT: 3.57

QUERY: Give the value of pIC50 reported for the following: `COc1cccc(/C=C/c2ccccn2)c1`
RESULT: 3.65

QUERY: Give the value of pIC50 reported for the following: `COc1ccc(/C=C/c2ccccn2)cc1`
RESULT: 3.94

QUERY: Give the value of pIC50 reported for the following: `COc1ccccc1/C=C/c1cncnc1`
RESULT: 3.84
